Could you please report measured EC50 for the items listed next?
# Test System: T1, human CD6 (human, UniProt P30203)
# T1 chain: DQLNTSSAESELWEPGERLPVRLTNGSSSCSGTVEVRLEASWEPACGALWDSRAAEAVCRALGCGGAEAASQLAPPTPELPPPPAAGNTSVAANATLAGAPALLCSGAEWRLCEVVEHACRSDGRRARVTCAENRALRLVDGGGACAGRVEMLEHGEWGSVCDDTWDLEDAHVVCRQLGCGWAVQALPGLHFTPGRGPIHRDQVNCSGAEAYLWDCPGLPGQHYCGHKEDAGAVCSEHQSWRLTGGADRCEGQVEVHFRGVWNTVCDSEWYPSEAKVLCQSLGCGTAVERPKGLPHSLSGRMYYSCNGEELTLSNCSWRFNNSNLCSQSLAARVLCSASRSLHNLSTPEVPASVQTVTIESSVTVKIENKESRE
# Test Method Notes: ELISA

Guide cases for EC50, answers given:
Binder	EC50
A1CD601 VHH HuG1Fc (chimeric) (antibody, V domains shown) VH: QVQLQESGGGLVQAGGSLRLSCTASERTFSDYALGWFRQGPGKEREFVAAINWVGGSTYYADSVKGRFTISRDNAKNTLLLQMNSLKPEDTAVYFCVASWGAMPVLTHVINYWGKGTQVTVSS	0.053 nM
CD601HH14 HuG1Fc (antibody, V domains shown) VH: QVQLVESGGGLVQPGGSLRLSCSASERTFSDYALGWFRQAPGKEREFVAAINWVGGSTYYADSVKGRFTISRDNAKNTLYLQMNSLRAEDTAVYYCVASWGAMPVLTHVINYWGKGTLVTVSS	0.053 nM
CD601HH12 HuG1Fc (antibody, V domains shown) VH: QVQLVESGGGLVQPGGSLRLSCTASERTFSDYALGWFRQAPGKEREFVAAINWVGGSTYYADSVKGRFTISRDNSKNTLYLQMNSLRAEDTAVYYCVASWGAMPVLTHVINYWGKGTLVTVSS	0.05 nM
CD601HH10 HuG1Fc (antibody, V domains shown) VH: QVQLQESGGGLVQPGGSLRLSCSASERTFSDYALGWFRQAPGKEREFVAAINWVGGSTYYADSVKGRFTISRDNSKNTLYLQMNSLRAEDTAVYYCVASWGAMPVLTHVINYWGKGTLVTVSS	0.066 nM

# context switch: different binder, same EC50
Just so you know, measured EC50 for CD601HH8 HuG1Fc (antibody, V domains shown) VH: QVQLVESGGGLVQPGGSLRLSCSASERTFSDYAMGWFRQAPGKEREFVAAINWVGGSTYYADSVKGRFTISRDNSKNTLYLQMNSLRAEDTAVYYCVASWGAMPVLTHVINYWGKGTLVTVSS came out at 0.053 nM
